Assay: Inhibition of RANKL/tumour necrosis factor alpha-induced formation of osteoclasts (unknown origin) by tartrate-resistant acid phosphatase staining based assay
Format: functional
pIC50: −log10 of the molar value.
Listed here: items and their measured pIC50.

[
  {
    "Smiles string": "C[C@H](CC(=O)C[C@H](C)C(=O)O)[C@H]1CC(=O)[C@@]2(C)C3=C(C(=O)C[C@]12C)[C@@]1(C)CCC(=O)C(C)(C)[C@@H]1C[C@@H]3O",
    "pIC50": 3.40
  },
  {
    "Smiles string": "C/C(=C/CC[C@@H](C)[C@H]1CC[C@@]2(C)C3=C(CC[C@]12C)[C@@]1(C)CCC(=O)C(C)(C)[C@@H]1CC3=O)C(=O)O",
    "pIC50": 4.52
  }
]
